# Tested on: MCF7 breast
# method.notes: NCI tumour cell line growth inhibition, 48 h; in the data active = GI50 below about 0.43 µM; inactive = the rest
Just give me one of these, please: active, inactive

Hello, I am checking results. What call was entered for Cc1ccc(NC(=O)c2cc3ccccc3cc2O)c(C)c1.Cc1ccc(NC(=O)c2cc3ccccc3cc2[O-])c(C)c1.[Ni+2] ?
inactive

Hello, I am checking results. What call was entered for Oc1c(I)cc(I)cc1CN(Cc1ccccn1)Cc1ccccn1 ?
inactive

Hello, I am checking results. What call was entered for Cc1nc2sc(C(=O)Nc3cccc(Br)c3)c(N)c2cc1C(O)c1ccccc1 (stereo not drawn) ?
active

Hello, I am checking results. What call was entered for CC(CN)[C@@H]1CC[C@]2(CO)CC[C@]3(C)[C@H](CC[C@@H]4[C@@]5(C)CCC(N)C(C)(C)[C@@H]5CC[C@]43C)[C@@H]12 (stereo partly drawn) ?
inactive

Hello, I am checking results. What call was entered for COc1ccc2c(c1)C(=O)c1c-2c(NCCN(C)C)nc2ccccc12 ?
inactive

Hello, I am checking results. What call was entered for CCN1CCN(c2ccc(Nc3ncc4ccc5ncn(C(C)C)c5c4n3)nc2)CC1 ?
active

Hello, I am checking results. What call was entered for Nc1nc(-c2ccc(Cl)cc2)cc(-c2ccccc2)c1-c1nc2ccccc2o1 ?
inactive

Hello, I am checking results. What call was entered for Fc1cccc(-c2[nH]nc3nc(Nc4cccnc4)sc23)c1 ?
inactive

Hello, I am checking results. What call was entered for Nc1ccc(-c2ccc(-c3nc4cc(Cl)c(Cl)cc4[nH]3)cc2)cc1 ?
active

Hello, I am checking results. What call was entered for N#Cc1nn(-c2cc(=O)[nH]c3ccc(Br)cc23)c(N)c1C#N ?
inactive

Hello, I am checking results. What call was entered for CC(=O)[O][Bi]([c]1ccccc1)[c]1ccccc1 ?
inactive

Hello, I am checking results. What call was entered for Nc1nc(-c2ccccc2)cc(-c2ccc(Cl)cc2)c1-c1nc2ccccc2o1 ?
inactive

Hello, I am checking results. What call was entered for COc1cnc2c(c1)C(=O)c1c-2n(CCCNC(C)C)c(=O)c2cc([N+](=O)[O-])ccc12 ?
active

Hello, I am checking results. What call was entered for Cc1nn(C)c2cc(N(C)c3ccnc(Nc4cccc(S(N)(=O)=O)c4)n3)ccc12 ?
inactive

Hello, I am checking results. What call was entered for O=[N+]([O-])c1cc2c(c([N+](=O)[O-])c1)Nc1ccccc1O2 ?
inactive

Hello, I am checking results. What call was entered for C/C(=C\c1ccn(-c2ccc(N)cc2F)n1)[C@@H]1C[C@@H]2O[C@]2(C)CCC[C@H](C)[C@H](O)[C@@H](C)C(=O)C(C)(C)[C@@H](O)CC(=O)O1 ?
active

Hello, I am checking results. What call was entered for COc1cc2c(cc1OCCCN1CCN(c3ncnc4ccccc34)CC1)N=CC1CCCN1C2=O (stereo not drawn) ?
active

Hello, I am checking results. What call was entered for COc1cc(N2CCC(N3CCN(C)CC3)CC2)ccc1Nc1ncc(Cl)c(Nc2ccccc2S(=O)(=O)C(C)C)n1 ?
active

* * *

# System: RXF 393 renal
# method.notes: NCI tumour cell line growth inhibition, 48 h
reported.endpoint: TGI (µM)
A number alone suffices; assume µM.

Tell us which TGI value is on record for CCN(CC)CC[n+]1cc2cc(OC)c(OC)cc2c2ccc3cc4c(cc3c21)OCO4
2.45

Tell us which TGI value is on record for CC(=O)[O][Bi]([c]1ccccc1)[c]1ccccc1
7.14

Tell us which TGI value is on record for CCOC(=O)c1c(CN2CCCC2)n(-c2ccccc2)c2cc(Br)c(OC)cc12
17.5

Tell us which TGI value is on record for O=C(O)c1ccccc1Nc1ccc2nnc(-c3ccncc3)n2n1
9.98

Tell us which TGI value is on record for CC[C@H]1C=CCC[C@@]2(C[C@@H]3CC[C@H]4[C@H](C(=O)OCCCCCCCCCCCCCCCC(=O)N(CCCN)C[C@@H](O)CCN)[C@]5(CCC[C@@H](C)O5)NC(=[N+]34)N2)O1
3.42

Tell us which TGI value is on record for CCOC(=O)c1cc(C#N)[nH]c1-c1ccsc1
51.3
